test system: Saccharomyces cerevisiae BY4741 SeMeCo community; assay: z-score of prototroph abundance vs DMSO median; higher = larger share of this subpopulation than in DMSO controls; conditions: 10 µM; 24 h; SM minimal medium; subpopulation (auxotrophy): Prototroph
Counter-ions that a name gives are not always drawn.
Everything with z-score of prototroph abundance lower than -0.1 is condition not met; everything else, including exactly -0.1, is condition met.

[
  {
    "MOLECULE": "C[C@@H]1CN(c2c(F)c(N)c3c(=O)c(C(=O)O)cn(C4CC4)c3c2F)C[C@H](C)N1 [Sparfloxacin]",
    "CLASS": "condition met"
  },
  {
    "MOLECULE": "CCOc1cc(N)c(Cl)cc1C(=O)NCC1CN(Cc2ccc(F)cc2)CCO1 (stereo not drawn) [Mosapride]",
    "CLASS": "condition met"
  },
  {
    "MOLECULE": "NC(=NCCCCCCN=C(N)N=C(N)Nc1ccc(Cl)cc1)N=C(N)Nc1ccc(Cl)cc1 [Chlorhexidine?2HCl]",
    "CLASS": "condition met"
  },
  {
    "MOLECULE": "CC1=C(C(=O)O)N2C(=O)[C@@H](NC(=O)[C@H](N)c3ccccc3)[C@H]2SC1 [Cephalexin]",
    "CLASS": "condition not met"
  },
  {
    "MOLECULE": "N[C@@H]1CONC1=O [D-Cycloserine]",
    "CLASS": "condition not met"
  },
  {
    "MOLECULE": "CCCN1CCCC[C@H]1C(=O)Nc1c(C)cccc1C [Ropivacaine HCl]",
    "CLASS": "condition not met"
  },
  {
    "MOLECULE": "Cc1cccc(N(C)C(=S)Oc2ccc3ccccc3c2)c1 [Tolnaftate]",
    "CLASS": "condition met"
  },
  {
    "MOLECULE": "CC1(C)S[C@@H]2[C@H](NC(=O)C(c3ccccc3)S(=O)(=O)O)C(=O)N2[C@H]1C(=O)O (stereo partly drawn) [Sulbenicillin Sodium]",
    "CLASS": "condition not met"
  }
]

###

# z-score of subpopulation abundance annotations
tested on: Saccharomyces cerevisiae BY4741 SeMeCo community; test: z-score of subpopulation abundance vs DMSO median, subpopulation auxotrophic for HM; higher = larger share of this subpopulation than in DMSO controls; details: 10 µM; 24 h; SM minimal medium; subpopulation (auxotrophy): HM
Where a name gives a salt, the structure may show the parent alone.
MEASURED_ENDPOINT: z-score of subpopulation abundance

[
  {
    "COMPOUND": "CN1CCN(c2cc3c(cc2F)c(=O)c(C(=O)O)cn3-c2ccc(F)cc2)CC1 [Difloxacin hydrochloride]",
    "SYSTEM_NAME": "Saccharomyces cerevisiae BY4741 SeMeCo community",
    "RECORDED_MEASUREMENT": -0.76
  },
  {
    "COMPOUND": "O=C([O-])CC(O)(CC(=O)[O-])C(=O)[O-].O=C([O-])CC(O)(CC(=O)[O-])C(=O)[O-].[Bi+3].[K+].[K+].[K+].[K+].[K+] [Bismuth Subcitrate Potassium]",
    "SYSTEM_NAME": "Saccharomyces cerevisiae BY4741 SeMeCo community",
    "RECORDED_MEASUREMENT": -1.66
  },
  {
    "COMPOUND": "O=C(O)c1ccccc1C(=O)Nc1ccc(S(=O)(=O)Nc2nccs2)cc1 [Phthalylsulfathiazole]",
    "SYSTEM_NAME": "Saccharomyces cerevisiae BY4741 SeMeCo community",
    "RECORDED_MEASUREMENT": 0.77
  }
]

###

tested on: Saccharomyces cerevisiae BY4741 SeMeCo community; assay: z-score of subpopulation abundance vs DMSO median, subpopulation auxotrophic for HLU; higher = larger share of this subpopulation than in DMSO controls; details: 10 µM; 24 h; SM minimal medium; subpopulation (auxotrophy): HLU
Where a name gives a salt, the structure may show the parent alone.

[
  {
    "COMPOUND": "C=C[C@]1(C)C[C@@H](OC(=O)CS[C@@H]2C[C@H]3CC[C@@H](C2)N3C)[C@]2(C)[C@H](C)CC[C@]3(CCC(=O)[C@H]32)[C@@H](C)[C@@H]1O [Retapamulin]",
    "SYSTEM_NAME": "Saccharomyces cerevisiae BY4741 SeMeCo community",
    "z-score of subpopulation abundance": 0.45
  },
  {
    "COMPOUND": "COc1ccc2cc([C@H](C)C(=O)O)ccc2c1 [Naproxen]",
    "SYSTEM_NAME": "Saccharomyces cerevisiae BY4741 SeMeCo community",
    "z-score of subpopulation abundance": -0.86
  },
  {
    "COMPOUND": "CNCC[C@H](Oc1cccc2ccccc12)c1cccs1 [Duloxetine HCl]",
    "SYSTEM_NAME": "Saccharomyces cerevisiae BY4741 SeMeCo community",
    "z-score of subpopulation abundance": -0.74
  },
  {
    "COMPOUND": "CC[C@H]1OC(=O)C[C@@H](O)[C@H](C)[C@@H](O[C@@H]2O[C@H](C)[C@@H](O)[C@H](N(C)C)[C@H]2O)[C@@H](CCN2C[C@H](C)C[C@H](C)C2)C[C@@H](C)C(=O)/C=C/C(C)=C/[C@@H]1CO[C@@H]1O[C@H](C)[C@@H](O)[C@@H](OC)[C@H]1OC [Tilmicosin phosphate]",
    "SYSTEM_NAME": "Saccharomyces cerevisiae BY4741 SeMeCo community",
    "z-score of subpopulation abundance": -0.18
  },
  {
    "COMPOUND": "O=C([O-])CC(O)(CC(=O)[O-])C(=O)[O-].O=C([O-])CC(O)(CC(=O)[O-])C(=O)[O-].[Bi+3].[K+].[K+].[K+].[K+].[K+] [Bismuth Subcitrate Potassium]",
    "SYSTEM_NAME": "Saccharomyces cerevisiae BY4741 SeMeCo community",
    "z-score of subpopulation abundance": 3
  },
  {
    "COMPOUND": "OCc1ccccc1O[C@@H]1O[C@H](CO)[C@@H](O)[C@H](O)[C@H]1O [Salicin]",
    "SYSTEM_NAME": "Saccharomyces cerevisiae BY4741 SeMeCo community",
    "z-score of subpopulation abundance": -0.13
  },
  {
    "COMPOUND": "CN(C)C[C@@H]1CCn2cc(c3ccccc32)C2=C(C(=O)NC2=O)c2cn(c3ccccc23)CCO1",
    "SYSTEM_NAME": "Saccharomyces cerevisiae BY4741 SeMeCo community",
    "z-score of subpopulation abundance": 1.21
  },
  {
    "COMPOUND": "CCOC(=O)C1=C(COCCN)NC(C)=C(C(=O)OC)[C@@H]1c1ccccc1Cl [Levamlodipine]",
    "SYSTEM_NAME": "Saccharomyces cerevisiae BY4741 SeMeCo community",
    "z-score of subpopulation abundance": -3.25
  },
  {
    "COMPOUND": "NC(=O)OCC(COC(N)=O)c1ccccc1 [Felbamate]",
    "SYSTEM_NAME": "Saccharomyces cerevisiae BY4741 SeMeCo community",
    "z-score of subpopulation abundance": -1.23
  },
  {
    "COMPOUND": "CCCCC(F)(F)[C@@]1(O)CC[C@H]2[C@@H](CC(=O)[C@@H]2CCCCCCC(=O)O)O1 [Lubiprostone]",
    "SYSTEM_NAME": "Saccharomyces cerevisiae BY4741 SeMeCo community",
    "z-score of subpopulation abundance": -0.93
  },
  {
    "COMPOUND": "C=CC[C@@H]1/C=C(\\C)C[C@H](C)C[C@H](OC)[C@H]2O[C@@](O)(C(=O)C(=O)N3CCCC[C@H]3C(=O)O[C@H](/C(C)=C/[C@@H]3CC[C@@H](O)[C@H](OC)C3)[C@H](C)[C@@H](O)CC1=O)[C@H](C)C[C@@H]2OC [Tacrolimus (FK506)]",
    "SYSTEM_NAME": "Saccharomyces cerevisiae BY4741 SeMeCo community",
    "z-score of subpopulation abundance": 1.27
  },
  {
    "COMPOUND": "O=C(O)CCC(=O)OC[C@@H](NC(=O)C(Cl)Cl)[C@H](O)c1ccc([N+](=O)[O-])cc1 [Chloramphenicol sodium succinate]",
    "SYSTEM_NAME": "Saccharomyces cerevisiae BY4741 SeMeCo community",
    "z-score of subpopulation abundance": 1.48
  },
  {
    "COMPOUND": "C[C@@H](O)[C@H]1C(=O)N2C(C(=O)OCOC(=O)C(C)(C)C)=C(SC3CN(C4=NCCS4)C3)[C@H](C)[C@H]12 [Tebipenem Pivoxil]",
    "SYSTEM_NAME": "Saccharomyces cerevisiae BY4741 SeMeCo community",
    "z-score of subpopulation abundance": -0.99
  },
  {
    "COMPOUND": "CCCOc1ccc2c(c1)CC[C@@H]1[C@@H]2CC[C@]2(C)[C@@H](OC)CC[C@@H]12 [Promestriene]",
    "SYSTEM_NAME": "Saccharomyces cerevisiae BY4741 SeMeCo community",
    "z-score of subpopulation abundance": 0.6
  },
  {
    "COMPOUND": "CCCCOc1ccc(C(=O)CCN2CCCCC2)cc1 [Dyclonine HCl]",
    "SYSTEM_NAME": "Saccharomyces cerevisiae BY4741 SeMeCo community",
    "z-score of subpopulation abundance": -0.26
  },
  {
    "COMPOUND": "C[C@H]1[C@H](NC(=O)/C(=N\\OC(C)(C)C(=O)O)c2csc(N)n2)C(=O)N1S(=O)(=O)O [Aztreonam]",
    "SYSTEM_NAME": "Saccharomyces cerevisiae BY4741 SeMeCo community",
    "z-score of subpopulation abundance": 0.52
  },
  {
    "COMPOUND": "CC(=O)OCC(CCn1cnc2cnc(N)nc21)COC(C)=O [Famciclovir]",
    "SYSTEM_NAME": "Saccharomyces cerevisiae BY4741 SeMeCo community",
    "z-score of subpopulation abundance": -0.67
  },
  {
    "COMPOUND": "COCCCN1CCC(NC(=O)c2cc(Cl)c(N)c3c2OCC3)CC1 [Prucalopride]",
    "SYSTEM_NAME": "Saccharomyces cerevisiae BY4741 SeMeCo community",
    "z-score of subpopulation abundance": -0.6
  },
  {
    "COMPOUND": "CCCC1CC(C(=O)NC(C(C)Cl)C2OC(SC)C(O)C(O)C2O)N(C)C1 (stereo not drawn) [Clindamycin alcoholate]",
    "SYSTEM_NAME": "Saccharomyces cerevisiae BY4741 SeMeCo community",
    "z-score of subpopulation abundance": -0.02
  },
  {
    "COMPOUND": "CCCCCCCCCCCC(=O)O [Lauric Acid]",
    "SYSTEM_NAME": "Saccharomyces cerevisiae BY4741 SeMeCo community",
    "z-score of subpopulation abundance": -0.82
  },
  {
    "COMPOUND": "C=C1c2cccc(O)c2C(O)=C2C(=O)[C@]3(O)C(O)=C(C(N)=O)C(=O)[C@@H](N(C)C)[C@@H]3[C@@H](O)[C@H]12 [Methacycline HCl]",
    "SYSTEM_NAME": "Saccharomyces cerevisiae BY4741 SeMeCo community",
    "z-score of subpopulation abundance": -0.87
  },
  {
    "COMPOUND": "O=C(O)CCNC(=O)c1ccccc1 [Betamipron]",
    "SYSTEM_NAME": "Saccharomyces cerevisiae BY4741 SeMeCo community",
    "z-score of subpopulation abundance": -1
  },
  {
    "COMPOUND": "CCCCCCCCCCCCCCCC[N+](C)(C)C [Cetrimonium Bromide (CTAB)]",
    "SYSTEM_NAME": "Saccharomyces cerevisiae BY4741 SeMeCo community",
    "z-score of subpopulation abundance": 19.1
  },
  {
    "COMPOUND": "Nc1nc2[nH]cc(CCc3ccc(C(=O)N[C@@H](CCC(=O)O)C(=O)O)cc3)c2c(=O)[nH]1 [Pemetrexed Disodium Hydrate]",
    "SYSTEM_NAME": "Saccharomyces cerevisiae BY4741 SeMeCo community",
    "z-score of subpopulation abundance": 11.4
  },
  {
    "COMPOUND": "Fc1ccc([C@@H]2CCNC[C@H]2COc2ccc3c(c2)OCO3)cc1 [Paroxetine mesylate]",
    "SYSTEM_NAME": "Saccharomyces cerevisiae BY4741 SeMeCo community",
    "z-score of subpopulation abundance": 0
  },
  {
    "COMPOUND": "CC1(C)S[C@@H]2[C@H](NC(=O)[C@H](N)c3ccc(O)cc3)C(=O)N2[C@H]1C(=O)O [Amoxicillin Sodium]",
    "SYSTEM_NAME": "Saccharomyces cerevisiae BY4741 SeMeCo community",
    "z-score of subpopulation abundance": -0.65
  },
  {
    "COMPOUND": "CO/N=C(\\C(=O)N[C@@H]1C(=O)N2C(C(=O)O)=C(Cn3ccc(=N)n3CCO)CS[C@H]12)c1csc(N)n1 [Cefoselis Sulfate]",
    "SYSTEM_NAME": "Saccharomyces cerevisiae BY4741 SeMeCo community",
    "z-score of subpopulation abundance": -0.33
  },
  {
    "COMPOUND": "CC(=O)O[C@]1(C(C)=O)CC[C@H]2[C@@H]3C[C@H](C)C4=CC(=O)CC[C@]4(C)[C@H]3CC[C@@]21C [Medroxyprogesterone acetate]",
    "SYSTEM_NAME": "Saccharomyces cerevisiae BY4741 SeMeCo community",
    "z-score of subpopulation abundance": -0.17
  }
]
